tested on: HEK-293T; test: Multiplex assay against HEK293T; type: toxicity, cell-based; details: human, 48 h, 10 µM, compound concentration 10 uM, replicate 1
Please go through the items and note down their Population Fragmented Nuclei (%).
Write the value in % as a bare number.

Query: Give its Population Fragmented Nuclei (%) value. Item: `O=C1[C@H](Cc2ccc(O)cc2)N2C(=O)CCN(C(=O)NCc3ccccc3)[C@H]2CN1Cc1cccc2ccccc12`
Result: 8

Query: Please report the recorded Population Fragmented Nuclei (%) for `COc1cccc2c1c(NS(=O)(=O)c1ccc(Cl)s1)nn2Cc1cccc(CNC(=O)C(C)(C)O)c1` .
Result: 16

Query: Form field: reported Population Fragmented Nuclei (%) of CCCCC1=NC2(CCCC2)C(=O)N1Cc1ccc(-c2ccccc2-c2nnn[nH]2)cc1 [IRBESARTAN]
Result: 15

Query: I'd like to know its Population Fragmented Nuclei (%). The compound in question is `CCc1cc2cc(NS(=O)(=O)c3ccc(C#N)cc3)ccc2n(CC)c1=O`
Result: 14

Query: I have this compound here, `Cc1cnc(-c2cc(N3CCN(C(=O)CCS(C)(=O)=O)CC3)ncc2Cl)c(C)c1` , and I need its recorded Population Fragmented Nuclei (%).
Result: 14

Query: Field request: Population Fragmented Nuclei (%) | item: Cl.NCCc1ccc(O)c(O)c1 [DOPAMINE HYDROCHLORIDE]
Result: 14

Query: Fill in: Population Fragmented Nuclei (%) of CN[C@@H](C)C(=O)N[C@H](C(=O)N1CCC[C@H]1C(=O)Nc1snnc1-c1ccccc1)C1CCCCC1 [GDC-0152] is ___
Result: 12

Query: Form field: reported Population Fragmented Nuclei (%) of CC(C)c1noc(N2CCC(COc3ccc(-c4ccc(S(C)(=O)=O)cc4)nc3)CC2)n1 [GSK-1292263]
Result: 10

Query: Given `CCCCC(=O)N(Cc1ccc(-c2ccccc2-c2nnn[nH]2)cc1)[C@H](C(=O)O)C(C)C` , state its recorded Population Fragmented Nuclei (%).
Result: 14

Query: Using the record for CC(C)(C)c1cc(NC(=O)Nc2ccc(-c3cn4c(n3)sc3cc(OCCN5CCOCC5)ccc34)cc2)no1 [QUIZARTINIB] , report its Population Fragmented Nuclei (%).
Result: 9

Query: State the recorded Population Fragmented Nuclei (%) for this entry: `Cc1cccc(NC(=O)CN2CCC(c3ccccn3)CC2)c1.Cl.Cl`
Result: 13

Query: What Population Fragmented Nuclei (%) value was documented for this compound, CC(=O)Nc1cccc2c1c(Sc1ccc(Cl)cc1)c(C)n2CC(=O)O [AZD1981] ?
Result: 14

Query: Find the recorded Population Fragmented Nuclei (%) belonging to COC[C@@H](c1ccc(C(F)(F)F)cc1)N1CCN(C2(C)CCN(C(=O)c3c(C)ncnc3C)CC2)C[C@@H]1C.O=C(O)/C=C\C(=O)O [VICRIVIROC MALEATE] and report it.
Result: 12

Query: Value lookup for Population Fragmented Nuclei (%); key = `CN(C)C(=O)Cn1cc(-c2ccc(-c3cncc4ccccc34)cc2)cn1`
Result: 23

Query: Given the entry `N#Cc1cc(F)cc(-c2nc(-c3ccc(F)cn3)no2)c1` , report its measured Population Fragmented Nuclei (%).
Result: 16

Query: Name the recorded Population Fragmented Nuclei (%) for `CCCOc1ccc2[nH]cc(C3=CCNCC3)c2n1.Cl` .
Result: 14

Query: Which value of Population Fragmented Nuclei (%) has been reported for `N#Cc1c(Oc2cccc(OS(=O)(=O)CCCC(F)(F)F)c2)cccc1C(F)(F)F` in the records?
Result: 11

Query: // Population Fragmented Nuclei (%) lookup, key: CC(C)COc1ccc(CNC(=O)N(Cc2ccc(F)cc2)C2CCN(C)CC2)cc1 [PIMAVANSERIN]
Result: 29
